- assay.name: Cytotoxicity against human CLL cells after 3 days by FMCA method
- Type: functional, cell-based
- condition.info: 72 h
measured.attribute: pIC50
Scale: pIC50 equals -log10([C]), with [C] in mol/L.

Recorded pIC50 for O=P(Oc1ccccc1)(Oc1ccccc1)OC1C=CS(=O)(=O)C1 (stereo unspecified) , please?
6.16
